Ref: PubChem BioAssay (NCI)

Test system: NCI-H460 lung
Test: NCI-60 one-dose screen, 48 h (100 = growth as untreated, 0 = no growth, -100 = all killed)
Conditions: 10 µM unless noted
The panel holds about 83,000 compounds, 20% with a hit somewhere; the sample as a whole holds those more often. The source made the active and inactive calls. How the source made its calls: active means growth percent below 10; inactive means the rest.
growth values for the molecules below.

Illustrative cases are given below, each with its answer.
{"molecule": "CCOC(=O)C1CSC(C)(C(=O)OCC)N1 (stereo unspecified)", "measured-target": "NCI-H460 lung", "growth": "106% (inactive)"}
{"molecule": "Cc1ccc(=O)n(-c2ccc(Br)cc2F)c1", "measured-target": "NCI-H460 lung", "growth": "110% (inactive)"}
{"molecule": "CC(=O)c1ccc2c(c1)C1C=CCC1[C@H](c1cc3c(cc1Br)OCO3)N2 (stereo partly specified)", "measured-target": "NCI-H460 lung", "growth": "7.92% (active)"}

GET /value?item= O=C(Nc1ccc(-n2cc(-c3ccncc3)c(-c3ccc(O)c(Cl)c3)n2)cc1)Nc1cc(C(F)(F)F)cc(C(F)(F)F)c1 &field=growth returns 49.3% (inactive)

The reported growth of the molecule CS(=O)(=O)OCC(COS(C)(=O)=O)C(c1ccccc1)c1ccccc1 was 110% (inactive)

// growth lookup, molecule = Nc1ncc(-c2ccc3ncnc(Nc4cncc(Cl)c4)c3c2)cn1 , result: 67.8% (inactive)

GET /value?item= O=[N+]([O-])c1ccccc1NC1c2ccccc2Oc2ccccc21 &field=growth returns 15.1% (inactive)

So, COc1ccc(/C=C2/C(=O)Nc3cc(Cl)c(-c4csc(N)n4)cc32)cc1 ? Its growth was 42.7% (inactive)

The recorded growth for CCc1cccc(-c2ccccc2)c1 is 108% (inactive)

What the record says about Nc1ncnc2c1c(-c1ccc(Oc3ccccc3)cc1)nn2C[C@@H]1SSC[C@H]1O : growth is 3.61% (active)

Reported growth ( CCCCCCCCN(CCCCCCCC)CC(O)c1cc(-c2ccccc2)nc2ccc(OC)cc12 (stereo unspecified) ) = 98.9% (inactive)

CN1CCN(CC(=O)N(C)c2ccc(N=C(c3ccccc3)c3c(O)[nH]c4ccc(C#N)cc34)cc2)CC1 yielded growth of 21.2% (inactive)

Form: molecule = Cc1c(NC(=O)c2sc3nc4c(cc3c2N)CN(Cc2ccccc2)CC4)cccc1C(F)(F)F ; growth = 18.7% (inactive)

Documented growth of CCCCCCCCCCCCCCCCNc1ccccc1 : 105% (inactive)

Lab book: growth of S=C=NP1(N=C=S)=NP(N=C=S)(N=C=S)=NP(N=C=S)(N=C=S)=NP(N=C=S)(N=C=S)=N1 (stereo unspecified) noted as 111% (inactive)
